The reported measurements were obtained from paper PMC4368888.

MEASURED ON: SERT (Rattus norvegicus)
Sequence (P31652 whole entry): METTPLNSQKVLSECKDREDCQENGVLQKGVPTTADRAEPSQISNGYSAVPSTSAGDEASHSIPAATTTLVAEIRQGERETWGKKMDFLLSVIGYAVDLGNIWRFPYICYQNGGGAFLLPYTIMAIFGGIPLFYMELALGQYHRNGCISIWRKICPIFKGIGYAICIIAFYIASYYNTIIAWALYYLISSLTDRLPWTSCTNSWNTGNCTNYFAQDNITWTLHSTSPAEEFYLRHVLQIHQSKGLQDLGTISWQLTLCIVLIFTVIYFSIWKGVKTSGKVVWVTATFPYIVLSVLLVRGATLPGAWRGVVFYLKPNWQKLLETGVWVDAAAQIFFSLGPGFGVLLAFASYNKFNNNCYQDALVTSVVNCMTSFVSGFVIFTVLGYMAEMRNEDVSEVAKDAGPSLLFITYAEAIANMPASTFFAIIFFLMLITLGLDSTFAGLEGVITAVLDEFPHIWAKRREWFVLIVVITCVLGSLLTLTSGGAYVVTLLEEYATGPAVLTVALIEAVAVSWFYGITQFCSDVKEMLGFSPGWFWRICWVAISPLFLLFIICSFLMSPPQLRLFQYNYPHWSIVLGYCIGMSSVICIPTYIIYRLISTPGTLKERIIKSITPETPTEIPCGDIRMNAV
ASSAY SUMMARY: Ex vivo SERT occupancy in rat spinal cord with PK/PD modeling
MEASUREMENT SETUP: rat spinal cord, plasma EC50; estimate (% CV)
Protocol: TD-9855 Rat Administration and Sampling — Rats (n = 6/timepoint/dose level) received a single oral dose of TD-9855 (0.3, 1, 5, 10, 30, and 60mg/kg) and were euthanized by decapitation at specified time points (0.5, 2, 4, 6, and 8hr for 5mg/kg dose level; 2hr for 0.3, 1, 10, 30, and 60mg/kg dose levels) post-administration. Spinal cords were dissected for ex vivo transporter occupancy and PK assessments from the same animals. […]
PROPERTY NAME: EC50
Remember to quote the unit after the number.

Retrieve EC50 measured for Fc1cc(F)c(OCc2ccccc2C2CCNCC2)c(F)c1 [TD-9855] and print it. 158 nM

* * *

ASSAY SUMMARY: in vivo
MEASUREMENT SETUP: Sprague Dawley, rat, po
PROPERTY NAME: k el
In your response, the unit should come after the numeric value.

For the compound Fc1cc(F)c(OCc2ccccc2C2CCNCC2)c(F)c1 , give its measured k el value. 8.86e-05 s⁻¹
